Where a name gives a salt, the structure may show the parent alone.
Overview of recorded melting point for various compounds

COCCN(CCOC)Cc1c(-c2ccccc2)nc2ccccc2c1C(=O)N[C@@H](C)C1CCCCC1: 114 to 115 °C

# lookup: melting point of C[C@H](NC(=O)c1c(CN2CCC(N3CCCCC3)CC2)c(-c2ccccc2)nc2ccccc12)c1ccccc1 (as salt: HCl)
208 to 210 °C

# lookup: melting point of C[C@H](NC(=O)c1c(CN2CCN(C(=NS(C)(=O)=O)N3CCCC3)CC2)c(-c2ccccc2)nc2ccccc12)C1CCCCC1
130 to 140 °C

# lookup: melting point of CC[C@H](NC(=O)c1c(CN2C[C@@H](C)N[C@@H](C)C2)c(-c2ccccc2)nc2ccccc12)c1ccccc1
114 to 120 °C

# lookup: melting point of C[C@H](NC(=O)c1c(CN2CCN(C(=O)Cc3c[nH]cn3)CC2)c(-c2ccccc2)nc2ccccc12)C1CCCCC1
178 to 210 °C
